Label key: YES means boiling point under 300 °C; NO means boiling point of 300 °C or more.

- Compound: "CCC(CC)C(C)(C)C"
  Group Label: "YES"
- Compound: "CCCCCCCCCCCCCCCC(C)=O"
  Group Label: "NO"
- Compound: "Cc1cccc(-c2ccccc2C)c1"
  Group Label: "YES"
- Compound: "CC(O)C(C)(C)CO (stereo unspecified)"
  Group Label: "YES"
- Compound: "BrC(Br)(Br)Br"
  Group Label: "YES"
- Compound: "CCc1ccc2ccccc2c1"
  Group Label: "YES"
- Compound: "CCCCCCCCCCCCCCCCCCCC"
  Group Label: "NO"
- Compound: "Cc1ccc(N)nc1"
  Group Label: "YES"
- Compound: "CC(C)=CCCl"
  Group Label: "YES"
- Compound: "O=[N+]([O-])CBr"
  Group Label: "YES"
- Compound: "CCC#N"
  Group Label: "YES"
- Compound: "CCCCCCc1ccc2ccccc2c1"
  Group Label: "NO"
- Compound: "CCOC(=O)C(Br)CBr (stereo unspecified)"
  Group Label: "YES"
- Compound: "Oc1c(Cl)cc(Cl)c(Cl)c1Cc1c(O)c(Cl)cc(Cl)c1Cl"
  Group Label: "NO"
- Compound: "CC1CCC(C)CC1 (stereo unspecified)"
  Group Label: "YES"
- Compound: "CCCC(C)C(C)CC (stereo unspecified)"
  Group Label: "YES"
- Compound: "C=CC=C(C)C"
  Group Label: "YES"
- Compound: "Cc1c(O)cccc1O"
  Group Label: "YES"
- Compound: "CCC1=CCCC1"
  Group Label: "YES"
- Compound: "CCCC(=O)CC"
  Group Label: "YES"
- Compound: "O=C(O)C1CCC1"
  Group Label: "YES"
- Compound: "CCCCCCCCCCF"
  Group Label: "YES"
- Compound: "CC(C)OC(=O)OC(C)C"
  Group Label: "YES"
- Compound: "CCCCCCCNCCCCCCC"
  Group Label: "YES"
- Compound: "CCCB(CCC)CCC"
  Group Label: "YES"

----------
- Smiles Entry: "NCCCCCCN"
  ready biodegradability: "readily biodegradable"
- Smiles Entry: "O=NN1CN2CN(C1)CN(N=O)C2"
  ready biodegradability: "readily biodegradable"
- Smiles Entry: "C=CC(=O)NCOCCCC"
  ready biodegradability: "readily biodegradable"

----------
Mark f for boiling point values under 200 °C, and t for everything at or above.

- Compound: "CC(=O)OC(OC(C)=O)c1ccco1"
  Group Label: "t"
- Compound: "CC#Cc1ccccc1"
  Group Label: "f"
- Compound: "CC(C)c1ccccc1O"
  Group Label: "t"
- Compound: "C[C@@H]1CCCCN1"
  Group Label: "f"
- Compound: "CC(F)(F)CC(F)(F)F"
  Group Label: "f"
- Compound: "C=COCCCl"
  Group Label: "f"
- Compound: "Cc1cc(N)cc(C)n1"
  Group Label: "t"
- Compound: "COC(=O)CCCCCCC(=O)OC"
  Group Label: "t"
- Compound: "c1ccc(-c2ccccc2-c2ccccc2-c2ccccc2)cc1"
  Group Label: "t"
- Compound: "c1ccc(Cc2ccncc2)cc1"
  Group Label: "t"
- Compound: "CCC(CC)(CC)C(C)C"
  Group Label: "f"
- Compound: "C=CCF"
  Group Label: "f"
- Compound: "CCCCCCCOC(=O)CC"
  Group Label: "t"
- Compound: "CCCCCCCCCCCN"
  Group Label: "t"
- Compound: "Clc1cc(Cl)c(Cl)cc1Cl"
  Group Label: "t"
- Compound: "CCNCCO"
  Group Label: "f"
- Compound: "C=CCC(C(C)=O)C(=O)OCC (configuration not stated)"
  Group Label: "t"
- Compound: "FC(F)(F)C(F)(F)C(Cl)Cl"
  Group Label: "f"
- Compound: "CCCCOC(=O)CCl"
  Group Label: "f"
- Compound: "Cc1ccccc1OC(=O)c1ccccc1"
  Group Label: "t"
- Compound: "CC(=O)C1CC=C(C)CC1 (configuration not stated)"
  Group Label: "f"
- Compound: "CN(C=O)c1ccccc1"
  Group Label: "t"
- Compound: "CC(C)CCC(C)C"
  Group Label: "f"
- Compound: "CCOC(=O)Cc1ccccc1"
  Group Label: "t"

Reference source for all entries: the OPERA property sets (Mansouri et al. 2018)
